Listing: variant/wild-type of selected binders
- tested-on: T1, human tissue factor pathway inhibitor (TFPI) (human, UniProt P10646 29-304, limits assumed)
- T1 construct: bought; also called hTFPI; human TFPI
- T1 sequence (looked up): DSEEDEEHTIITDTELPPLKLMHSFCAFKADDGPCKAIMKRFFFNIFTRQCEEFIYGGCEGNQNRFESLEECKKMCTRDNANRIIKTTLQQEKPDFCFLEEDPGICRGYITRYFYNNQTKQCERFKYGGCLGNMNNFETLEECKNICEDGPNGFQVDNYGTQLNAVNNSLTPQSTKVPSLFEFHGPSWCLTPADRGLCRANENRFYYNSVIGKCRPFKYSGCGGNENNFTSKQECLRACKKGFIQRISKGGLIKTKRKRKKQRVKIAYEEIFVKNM
- procedure-summary: competitive ELISA
Write the value in ratio as a bare number.

Record excerpt, results attached:
binder	scale-unit	variant/wild-type
4B7 LC_S32Y (Fab, V domains shown) VH: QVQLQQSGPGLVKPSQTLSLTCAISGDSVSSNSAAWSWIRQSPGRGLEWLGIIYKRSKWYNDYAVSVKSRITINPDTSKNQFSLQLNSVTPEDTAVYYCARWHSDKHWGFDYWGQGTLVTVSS VL: DIVMTQSPLSLPVTPGEPASISCRSSQSLVFYDGNTYLNWYLQKPGQSPQLLIYKGSNRASGVPDRFSGSGSGTDFTLKISRVEAEDVGVYYCQQYDSYPLTFGQGTKVEIKR	ratio	2
4B7 HC_N32D (Fab, V domains shown) VH: QVQLQQSGPGLVKPSQTLSLTCAISGDSVSSDSAAWSWIRQSPGRGLEWLGIIYKRSKWYNDYAVSVKSRITINPDTSKNQFSLQLNSVTPEDTAVYYCARWHSDKHWGFDYWGQGTLVTVSS VL: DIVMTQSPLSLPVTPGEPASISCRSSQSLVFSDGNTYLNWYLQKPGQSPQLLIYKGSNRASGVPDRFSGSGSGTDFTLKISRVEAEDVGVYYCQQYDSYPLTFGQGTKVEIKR	ratio	3.8
4B7 LC_S57Y (Fab, V domains shown) VH: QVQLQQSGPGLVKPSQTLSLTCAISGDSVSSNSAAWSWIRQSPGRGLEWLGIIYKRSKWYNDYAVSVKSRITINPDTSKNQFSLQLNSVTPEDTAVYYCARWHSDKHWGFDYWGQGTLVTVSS VL: DIVMTQSPLSLPVTPGEPASISCRSSQSLVFSDGNTYLNWYLQKPGQSPQLLIYKGYNRASGVPDRFSGSGSGTDFTLKISRVEAEDVGVYYCQQYDSYPLTFGQGTKVEIKR	ratio	1.6
4B7 LC_N35I (Fab, V domains shown) VH: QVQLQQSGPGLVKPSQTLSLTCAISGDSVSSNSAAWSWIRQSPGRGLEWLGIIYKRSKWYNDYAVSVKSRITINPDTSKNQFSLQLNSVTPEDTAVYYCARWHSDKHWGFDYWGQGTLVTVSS VL: DIVMTQSPLSLPVTPGEPASISCRSSQSLVFSDGITYLNWYLQKPGQSPQLLIYKGSNRASGVPDRFSGSGSGTDFTLKISRVEAEDVGVYYCQQYDSYPLTFGQGTKVEIKR	ratio	3.6

Turning to the following binder.
Sample 4B7 HC_D62L (Fab, V domains shown) VH: QVQLQQSGPGLVKPSQTLSLTCAISGDSVSSNSAAWSWIRQSPGRGLEWLGIIYKRSKWYNLYAVSVKSRITINPDTSKNQFSLQLNSVTPEDTAVYYCARWHSDKHWGFDYWGQGTLVTVSS VL: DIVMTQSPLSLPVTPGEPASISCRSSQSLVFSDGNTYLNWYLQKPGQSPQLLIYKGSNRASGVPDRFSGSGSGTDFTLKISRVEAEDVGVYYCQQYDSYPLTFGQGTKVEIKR — what was its variant/wild-type?
6.8
